Test system: Calu-3
Test: cell viability relative to DMSO; higher = less toxic
Conditions: 72 h; 10 nM
TEST_READOUT: cell viability (%)
Number in %, nothing else.

>  <MOLECULE>
C/C(=C\C(=O)Nc1ccccc1C(=O)O)c1ccc2ccccc2c1

>  <MEASUREMENT_UNITS>
%

>  <cell viability>
102

$$$$
>  <MOLECULE>
CC(C)CC(N)=O [isovaleramide]

>  <MEASUREMENT_UNITS>
%

>  <cell viability>
103

$$$$
>  <MOLECULE>
O=C(COP(=O)(O)O)[C@@H](O)[C@H](O)[C@H](O)COP(=O)(O)O

>  <MEASUREMENT_UNITS>
%

>  <cell viability>
101

$$$$
>  <MOLECULE>
O=P(O)(O)C(O)(Cc1cnc2ccccn12)P(=O)(O)O

>  <MEASUREMENT_UNITS>
%

>  <cell viability>
95.1

$$$$
>  <MOLECULE>
O=C(c1ccc(C(=O)N2CCC(N3CCCC3)CC2)c(Nc2ccccc2)c1)N1CCC(N2CCCC2)CC1

>  <MEASUREMENT_UNITS>
%

>  <cell viability>
111

$$$$

-- ask Input `CC(C)Oc1ccc(Cc2ccc(NC3=NCCN3)cc2)cc1` , output reported cell viability.
-- reply 99.8

-- ask # return recorded cell viability for entry COC(=O)C1=C(C)NC(C)=C(C(=O)NCCCN2CCC(c3ccccc3)(c3ccccc3)CC2)C1c1ccc([N+](=O)[O-])cc1 (configuration not stated)
-- reply 101

###

Reported cell viability values for the following compounds.
System: Calu-3
Test: cell viability relative to DMSO; higher = less toxic
Settings: 72 h; 100 nM
Field: numeric (%). Do not append units.

>  <COMPOUND>
O[C@H]([C@H](O)[C@@H]1CO1)[C@H]1CO1 [dianhydrogalactitol]

>  <cell viability [%]>
99.3

$$$$
>  <COMPOUND>
COC(=O)N[C@H](C(=O)N1CCC[C@H]1c1ncc(-c2ccc(-c3ccc(-c4cnc([C@@H]5CCCN5C(=O)[C@@H](NC(=O)OC)C(C)C)[nH]4)cc3)cc2)[nH]1)C(C)C

>  <cell viability [%]>
93.1

$$$$
>  <COMPOUND>
C#CCN[C@@H]1CCc2ccccc21

>  <cell viability [%]>
100

$$$$
>  <COMPOUND>
Cc1cc(C#N)cc(C)c1Oc1nc(Nc2ccc(C#N)cc2)nc(N)c1Br

>  <cell viability [%]>
95.7

$$$$
>  <COMPOUND>
COC1=C(OC)C(=O)C(CCCCCCCCCCO)=C(C)C1=O

>  <cell viability [%]>
90.3

$$$$
>  <COMPOUND>
CO[C@H]1C[C@H](O[C@@H]2/C(C)=C/C[C@@H]3C[C@@H](C[C@]4(CC[C@H](C)[C@@H](C5CCCCC5)O4)O3)OC(=O)[C@@H]3C=C(C)/C(=N/O)[C@H]4OC/C(=C\C=C\[C@@H]2C)[C@]43O)O[C@@H](C)[C@@H]1O

>  <cell viability [%]>
96.2

$$$$
>  <COMPOUND>
CC(C)(C)c1cc(C(C)(C)C)c(NC(=O)c2c[nH]c3ccccc3c2=O)cc1O

>  <cell viability [%]>
93.3

$$$$
>  <COMPOUND>
NC[C@H]1CC[C@H](C(=O)O)CC1

>  <cell viability [%]>
87.8

$$$$

-- ask In one line, give reported cell viability of the entry CCCCCCCCCCC(=O)O[C@H]1CC[C@H]2[C@@H]3CCC4=CC(=O)CC[C@]4(C)[C@H]3CC[C@]12C [Testosterone (undecanoate)] .
-- reply 96.5

-- ask Return cell viability (reported value) for this compound: `CN1CCC(c2c[nH]c3ccc(O)cc23)CC1`
-- reply 87.9

-- ask Fill in cell viability for record Cc1cc(/C=C/c2ccc3cc(N(C)C)ccc3[n+]2C)c(C)n1-c1ccccc1 [pyrvinium-pamoate]
-- reply 99.3

-- ask Indicate its recorded cell viability; the compound in question is `CNNCc1ccc(C(=O)NC(C)C)cc1`
-- reply 97.4

-- ask Consider the compound `O=C(CCCN1CCC2(CC1)C(=O)NCN2c1ccccc1)c1ccc(F)cc1` and give its recorded cell viability.
-- reply 108

-- ask Supply reported cell viability belonging to this compound: `N[C@@H]1CN(c2c(F)cc3c(=O)c(C(=O)O)cn([C@@H]4C[C@@H]4F)c3c2Cl)CC12CC2`
-- reply 98

-- ask Identify measured cell viability corresponding to `O=C(NCCN1CCC(n2c(=O)[nH]c3ccccc32)CC1)c1cc2cc(F)ccc2[nH]1`
-- reply 99.8

-- ask Read off the recorded cell viability for `Cn1cc(-c2ccc3nnc(Sc4ccc5ncccc5c4)n3n2)cn1`
-- reply 102

-- ask For the compound `Nc1cc(F)ccc1NC(=O)/C=C/c1cnn(C/C=C/c2ccccc2)c1` , give its reported cell viability.
-- reply 89.2

-- ask Find the measured cell viability of `O=C(Nc1cccc2c(=O)cc(-c3nnn[nH]3)oc12)c1ccc(OCCCCc2ccccc2)cc1` and report it.
-- reply 93.1

-- ask Please list cell viability recorded for the compound `NCCc1ccccn1`
-- reply 93.4

-- ask Return reported cell viability. Input compound: `Cc1ccc(NC2=NCCN2)c(Cl)c1`
-- reply 96.5

-- ask Given the compound `CC1=C(C(=O)O)N2C(=O)[C@@H](NC(=O)[C@H](N)c3ccc(O)cc3)[C@H]2SC1` , write its reported cell viability.
-- reply 107

-- ask Report cell viability, nothing else, for this compound: `CC(C)N(CCCNC(=O)Nc1ccc(C(C)(C)C)cc1)C[C@H]1O[C@@H](n2ccc3c(N)ncnc32)[C@H](O)[C@@H]1O`
-- reply 92.4

-- ask Return cell viability for the following compound: `Cc1ccc(-c2ccc(F)cc2COc2ccc(CCC(=O)O)cc2)cc1`
-- reply 105

-- ask Name the recorded cell viability of the compound listed here: `CO[C@@]1(NC(=O)Cc2cccs2)C(=O)N2C(C(=O)O)=C(COC(N)=O)CS[C@@H]21`
-- reply 106

-- ask Quote cell viability reported for `CC#CC(=O)N1CC[C@@H](n2c(=O)n(-c3ccc(Oc4ccccc4)cc3)c3c(N)ncnc32)C1` please.
-- reply 73.6

-- ask Give reported cell viability value for `CC(C)(C)c1cc(C=C(C#N)C#N)cc(Br)c1O`
-- reply 92

-- ask Respond only with cell viability recorded for `O=C(NC[C@H](O)CN1CCc2ccccc2C1)c1cc(NC2COC2)ncn1`
-- reply 104

-- ask State its cell viability for this compound: CC[C@H](CO)Nc1nc(NCc2ccc(-c3ccccn3)cc2)c2ncn(C(C)C)c2n1 [CR8-(R)]
-- reply 87

-- ask Tell me measured cell viability for CCCCC(CC)CNC(=N)NC(=N)NCCCCCCNC(=N)NC(=N)NCC(CC)CCCC (stereo not given) please.
-- reply 104

-- ask Provide measured cell viability value, entry: `FC(F)c1nc2ccccc2n1-c1nc(N2CCOCC2)nc(N2CCOCC2)n1`
-- reply 95.3

-- ask Consider the compound CN1c2ccccc2C(=O)N2CCc3c([nH]c4ccccc34)C21 (stereo in doubt) and give its recorded cell viability.
-- reply 96.7

-- ask State, in one line, measured cell viability of `Cc1c(-c2ccccc2F)[nH]c(N)c1C#N`
-- reply 83.6

-- ask Output measured cell viability for this item: `c1ccc2cc(C3=NCCN3)ncc2c1`
-- reply 97

-- ask Please report cell viability for the following compound: CCC(C)(CN(C)C)OC(=O)c1ccccc1 (stereo not given)
-- reply 101

-- ask Supply reported cell viability belonging to this compound: `O=C(CCCN1CCC2(CC1)C(=O)N(Cc1cccc(F)c1)CN2c1ccccc1)c1ccc(F)cc1`
-- reply 90.6
